Taken from patent US20250282736A1.

target-of-assay: hPXR (Homo sapiens (Human), UniProt O75469)
Sequence (O75469 whole entry): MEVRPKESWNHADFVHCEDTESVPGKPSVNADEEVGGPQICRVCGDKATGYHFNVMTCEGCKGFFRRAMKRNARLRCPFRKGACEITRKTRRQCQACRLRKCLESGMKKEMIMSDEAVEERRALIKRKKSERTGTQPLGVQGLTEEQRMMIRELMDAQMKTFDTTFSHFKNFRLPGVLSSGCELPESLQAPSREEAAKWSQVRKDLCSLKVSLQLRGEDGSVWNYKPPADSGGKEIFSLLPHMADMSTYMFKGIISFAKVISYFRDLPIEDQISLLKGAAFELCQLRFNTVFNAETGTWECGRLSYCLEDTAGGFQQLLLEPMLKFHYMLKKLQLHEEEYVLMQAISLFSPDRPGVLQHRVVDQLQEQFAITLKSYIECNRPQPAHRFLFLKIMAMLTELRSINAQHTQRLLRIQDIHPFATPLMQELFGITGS
experimental-details: cell-based hPXR antagonistic assay
property-label: IC50

Sample records with IC50:
COc1ccc(OC)c(-n2nnc(C(=O)Nc3cc(C(C)(C)C)ccc3OCC(=O)OC(C)(C)C)c2C)c1 [B24] = > 30 µM
CCC(C)Oc1ccc(C(C)(C)C)cc1NC(=O)c1nnn(-c2cc(Cl)ccc2OC)c1C (centres unmarked) [F10] = 0.019 µM
COc1ccc(OC)c(-n2nnc(C(=O)Nc3ccc(N)c(C(C)(C)C)c3)c2C)c1 [C2] = > 30 µM
COc1ccc(OC)c(-n2nnc(C(=O)Nc3ccc(N4CCN(C)CC4)cc3)c2C)c1 [A16] = > 30 µM

Would you mind telling me what IC50 value was observed for CCCCOc1ccc(C(C)(C)C)cc1NC(=O)c1nnn(-c2ccncc2)c1C [H13] ?
> 30 µM
